# PROTOCOL_TEXT: Stability comparison test (long-term storage, HPLC of decomposition product of Formula 3 and total impurities)
# Assay type: physicochemical
# EXPERIMENTAL_PARAMETERS: 6 months at 25° C. / 60% relative humidity
PROPERTY_MEASURED: Total impurity concentration (%) 6 months

See these solved cases before continuing.
Q: Determine its reported Total impurity concentration (%) 6 months: CCCc1c(-c2ccccc2)nn(-c2ccccn2)c1O [L-tartrate]
Ans: 1.85

Q: Read off the recorded Total impurity concentration (%) 6 months for CCCc1c(-c2ccccc2)nn(-c2ccccn2)c1O [Hemi-1,5-naphthalene disulfonate]
Ans: 1.24

Q: In one line, give reported Total impurity concentration (%) 6 months of the entry CCCc1c(-c2ccccc2)nn(-c2ccccn2)c1O [L-malate] .
Ans: 3.27

a = CCCc1c(-c2ccccc2)nn(-c2ccccn2)c1O [Comparative Example 1]
b = CCCc1c(-c2ccccc2)nn(-c2ccccn2)c1O [Example 1]
Q: Of a and b , which one carries the higher reported Total impurity concentration (%) 6 months? Indicate which entry you chose by stating its label.
Ans: a
(a: 7.58%, b: 0.47%)
